Origin of measurements: paper PMC10670708

System: AML12 murine hepatocytes
test: Cytotoxicity assay (resazurin), AML12
Format: cell-based
test settings: Mus musculus, 48 h
measured endpoint: pIC50
# log scale: pIC50 equals minus log10 of the concentration in mol/L

Any idea what its pIC50 is? The compound is C=C(C)[C@@H](CC=C(C)C)C[C@@]12C[C@@H](CC=C(C)C)C(C)(C)[C@@](CC=C(C)C)(C(=O)C(C(=O)c3ccc(O)c(O)c3)=C1O)C2=O [garcinol, reference compound] 5.00

Any idea what its pIC50 is? The compound is COc1cc(/C=C/C(=O)CC(=O)/C=C/c2ccc(O)c(OC)c2)ccc1O [curcumin] 4.97

Any idea what its pIC50 is? The compound is CC(C)=CC[C@H]1C[C@@]23C[C@@H](CC=C(C)C)C(C)(C)[C@@](CC=C(C)C)(C(=O)C(C(=O)c4ccc(O)c(O)c4)=C2OC1(C)C)C3=O [isogarcinol] 5.37

Any idea what its pIC50 is? The compound is CN1C/C(=C\c2ccc(S(F)(F)(F)(F)F)cc2)C(=O)/C(=C/c2ccc(S(F)(F)(F)(F)F)cc2)C1 [MePip-SF5] 5.64
